Source listed as PubChem BioAssay (NCATS).

- Experimental details: Viability qHTS for spleen associated tyrosine kinase inhibitor (SYKi) drug resistant MV4-11 cells (AID 1963824); note: nearly all actives have a fitted effect of over 35% in size
- Test parameters: SYKi-resistant MV4-11 viability, CellTiter-Glo, 72 h; series mostly up to 45 µM
Inconclusive results are not listed. Calls of active or inactive are those of the source. Calls come from the whole dose curve; as a rule, active = well fitted cell-killing curve with a large enough effect; inconclusive = small, poorly fitted or top-dose-only effect, or effect the other way; inactive = no such curve, though single readings can be large or run the other way.
Classes used: active, inactive

{"columns": ["Compound", "Qualitative label"],
 "data": [
  ["CC(O)COc1ccccc1 (stereo not given)", "inactive"],
  ["O=C(NCc1ccc(OC(F)(F)F)cc1)C1c2ccccc2C(=O)N1C1CCOCC1 (stereo not given)", "inactive"],
  ["COc1ccc(C[C@H](N)C(=O)N[C@@H]2[C@H](O)[C@H](n3cnc4c(N(C)C)ncnc43)O[C@@H]2CO)cc1", "active"],
  ["CC1=CC(=O)C(=C(C)C)CC2C(C)(O)CCC12O (stereo not given)", "inactive"],
  ["COc1ccc2c(c1)CCCC2=O", "inactive"],
  ["O=C(O)c1ccccc1Nc1cccc(C(F)(F)F)c1", "inactive"],
  ["COc1ccc(O[C@@H]2O[C@H](CO)[C@@H](O)[C@H](O)[C@H]2O)cc1OC", "inactive"],
  ["O=C(Nc1ccc(-c2ccc(Cl)c(Cl)c2)cc1)C1=C(O)c2ccccc2S(=O)(=O)N1", "active"],
  ["NC[C@H]1O[C@H](O[C@H]2[C@H](O)[C@@H](O[C@H]3O[C@H](CO)[C@@H](O)[C@H](N)[C@H]3O)[C@H](N)C[C@@H]2N)[C@H](N)C[C@@H]1O", "active"],
  ["CC(C(=O)O)c1ccc(C(=O)c2cccs2)cc1 (stereo not given)", "inactive"]
]}

###

- Experimental details: Quantitative highthroughput screen to assess conditional lethalithy of SEM cells grown in RPMI1640 with unreated serum (RPMI+s) (AID 1963883); note: nearly all actives have a fitted effect of over 35% in size; note: potency is the fitted concentration of half-maximal effect
- Test parameters: SEM B-ALL cells, CellTiter-Glo viability, 48 h; series mostly up to 45.8 µM
Results filed as inconclusive are left out. Calls of active or inactive are those of the source. The call rests on the fitted dose curve; in most records, active means well fitted cell-killing curve with a large enough effect; inconclusive means small, poorly fitted or top-dose-only effect, or effect the other way; inactive means no such curve, though single readings can be large or run the other way. Peptide text beside a SMILES is read from it.
Measured endpoint: Potency

{"columns": ["Compound", "Experimental value"],
 "data": [
  ["Cn1cc(-c2cnn3c(N)c(Br)c([C@H]4CCCNC4)nc23)cn1", "2.35 µM (active)"],
  ["CN[C@@H]1[C@@H](O)[C@@H](O[C@@H]2[C@@H](O)[C@H](O[C@H]3O[C@H](CN)[C@@H](O)[C@H](O)[C@@H]3O)[C@@H](N)C[C@@H]2NC(=O)[C@@H](O)CN)OC[C@]1(C)O", "inactive"],
  ["COC(=O)[C@H](Cc1ccccc1)NC(=O)[C@@H](N)CC(=O)O (H-Asp-Phe-OMe)", "inactive"],
  ["CON(C)C(=O)N1N=C(c2cc(F)ccc2F)S[C@]1(CCCN)c1ccccc1", "inactive"]
]}

###

- Experimental details: Quantitative highthroughput screen to assess conditional lethalithy of P12 Ichikawa cells grown in RPMI1640 with dialyzed fetal bovine serum (RPMI+ds) (AID 1963880); note: nearly all actives have a fitted effect of over 35% in size
- Test parameters: ATP luminescence, 48 h; P12-Ichikawa viability; series mostly up to 45.8 µM
Inconclusive results are not listed. The source made the active and inactive calls. Calls follow the shape of the dose curve; as a rule, active = well fitted cell-killing curve with a large enough effect; inconclusive = small, poorly fitted or top-dose-only effect; inactive = flat fitted curve, though single readings scatter.
Labels: active, inactive

{"columns": ["Compound", "Qualitative label"],
 "data": [
  ["CS(=O)(=O)c1ccc(C2=C(c3ccccc3)C(=O)OC2)cc1", "inactive"],
  ["COc1cc2ncnc(Nc3cccc(Br)c3)c2cc1OC", "inactive"],
  ["COc1cc(C=CC(=O)CC(=O)C=Cc2ccc(O)c(OC)c2)ccc1O", "active"],
  ["COc1ccc(CC2=NN3C([C@@H](CCc4ccccc4)[C@@H](C)O)=NC(C)C3C(=O)N2)cc1OC (stereo partly drawn)", "inactive"],
  ["CC1(C)[C@H]2CC[C@]3(C)[C@@H](C(=O)C=C4[C@@H]5C[C@@](C)(C(=O)O)CC[C@]5(C)CC[C@]43C)[C@@]2(C)CC[C@@H]1O", "inactive"],
  ["CCN(CCO)CCCOc1ccc2c(Nc3cc(CC(=O)Nc4cccc(F)c4)[nH]n3)ncnc2c1", "active"],
  ["O=C(NCCO[N+](=O)[O-])c1cccnc1", "inactive"],
  ["CCCCCCCCc1ccc(CCC(N)(CO)CO)cc1", "active"],
  ["CC(C)OC(=O)C1=CN(C(=O)c2ccc(F)c(F)c2)CC(C)(C)c2c1[nH]c1ccccc21", "inactive"],
  ["CCCCCCCCCCCC(CC1OC(=O)C1CCCCCC)OC(=O)C(CC(C)C)NC=O (stereo not drawn)", "active"],
  ["CNC(=O)[C@H](Cc1ccccc1)NC(=O)[C@H](CC(C)C)[C@H](CSc1cccs1)C(=O)NO", "active"],
  ["O=C(C=Cc1c(C(=O)O)[nH]c2cc(Cl)cc(Cl)c12)Nc1ccccc1", "inactive"],
  ["CC(C)NCC(O)c1ccc(NS(C)(=O)=O)cc1 (stereo not drawn)", "inactive"]
]}

###

- Experimental details: Viability qHTS for spleen associated tyrosine kinase inhibitor (SYKi) naive MV4-11 cells (AID 1963823); note: nearly all actives have a fitted effect of over 40% in size
- Test parameters: MV4-11 AML viability, CellTiter-Glo luminescence, 72 h; series mostly up to 45 µM
Records with an inconclusive call do not appear. Activity calls are given as the source filed them. Calls come from the whole dose curve; as a rule, active = well fitted cell-killing curve with a large enough effect; inconclusive = small, poorly fitted or top-dose-only effect, or effect the other way; inactive = no such curve, though single readings can be large or run the other way.
Outcomes: True (active), False (inactive)

{"columns": ["Test smiles", "Qualitative label"],
 "data": [
  ["CC(Oc1ccc(O)cc1)(P(=O)(O)O)P(=O)(O)O", "False"],
  ["COc1cc(C)c(C(=O)O[C@@H]2[C@H](O)[C@@H](CO)O[C@H]2n2ccc(=O)[nH]c2=O)c(OC)c1", "False"],
  ["CCCCOc1ccc(C(=O)CCN2CCCCC2)cc1", "True"],
  ["CN(C[C@@H]1COCCO1)S(=O)(=O)Nc1ccc2ccc3ncc(-c4cnn(C)c4)cc3c(=O)c2c1", "True"],
  ["OC[C@H]1O[C@@H](n2cnc3c(NCc4ccc(O)cc4)ncnc32)[C@H](O)[C@@H]1O", "True"],
  ["CN1CCC[C@@H]1Cc1c[nH]c2ccc(CCS(=O)(=O)c3ccccc3)cc12", "False"]
]}

###

- Experimental details: Viability qHTS for spleen associated tyrosine kinase inhibitor (SYKi) drug resistant MV4-11 cells (AID 1963824); note: nearly all actives have a fitted effect of over 35% in size; note: potency is the fitted concentration of half-maximal effect
- Test parameters: SYKi-resistant MV4-11 viability, CellTiter-Glo, 72 h; series mostly up to 45 µM
Inconclusive results are not listed. Active and inactive are the calls of the source. Calls come from the whole dose curve; as a rule, active = well fitted cell-killing curve with a large enough effect; inconclusive = small, poorly fitted or top-dose-only effect, or effect the other way; inactive = no such curve, though single readings can be large or run the other way.
Measured endpoint: Potency

{"columns": ["Test smiles", "Measured endpoint", "Experimental value"],
 "data": [
  ["CCCC(=O)Nc1ccc(O)c(C(C)=O)c1", "Potency", "inactive"],
  ["NNC(=O)c1ccncc1", "Potency", "inactive"],
  ["CC(=O)O[C@@H]1[C@@H](OC(=O)/C=C/c2ccccc2)[C@@H](OC(C)=O)[C@H](O[C@H]2[C@@H]3C=CO[C@@H](O[C@@H]4O[C@H](CO)[C@@H](O)[C@H](O)[C@H]4O)[C@@H]3[C@@]3(CO)O[C@@H]23)O[C@H]1C", "Potency", "inactive"],
  ["O=c1[nH]c2ccccc2c(=O)n1CCCl", "Potency", "inactive"],
  ["OCCn1cc(-c2cnc3nnn(Cc4ccc5ncccc5c4)c3n2)cn1", "Potency", "20.9 µM (active)"],
  ["NS(=O)(=O)c1cc(-c2nn[nH]n2)c(NCc2cccs2)cc1Cl", "Potency", "inactive"],
  ["C/C=C(\\C)[C@@H]1C(C)=C[C@@H]2[C@H]([C@@H]1/C=C/C=C/C(=O)O)[C@@H](C)CC[C@@H]2O", "Potency", "3.6 µM (active)"],
  ["O=C(CCCl)NCCc1ccccc1", "Potency", "inactive"],
  ["COc1cc(CNC(=O)CCCC/C=C/C(C)C)ccc1O", "Potency", "18.4 µM (active)"]
]}

###

- Experimental details: Cellular viability qHTS for adrenocortical cancer (ACC) cell line NCI-H295R (AID 1963990); note: nearly all actives have a fitted effect of over 60% in size
- Test parameters: CellTiter-Glo ATP luminescence, 48 h; series mostly up to 46.1 µM
Inconclusive results are not listed. Activity calls are given as the source filed them. Calls come from the whole dose curve; as a rule, active = well fitted cell-killing curve with a large enough effect; inconclusive = small, poorly fitted or top-dose-only effect; inactive = flat fitted curve, though single readings scatter.
Labels: active, inactive

{"columns": ["Compound", "Qualitative label"],
 "data": [
  ["Cc1cn([C@@H]2O[C@H](CO)[C@@H](O)[C@H]2F)c(=O)[nH]c1=O", "inactive"],
  ["CCC[C@H](NC(=O)[C@@H]1[C@H]2CCC[C@H]2CN1C(=O)[C@@H](NC(=O)[C@@H](NC(=O)c1cnccn1)C1CCCCC1)C(C)(C)C)C(=O)C(=O)NC1CC1", "inactive"],
  ["N[C@H](CSC(c1ccccc1)(c1ccccc1)c1ccccc1)C(=O)O", "inactive"],
  ["CC1=C2[N-][C@H]([C@H](CC(N)=O)[C@@]2(C)CCC(=O)NC[C@@H](C)OP(=O)([O-])O[C@H]2[C@@H](O)[C@@H](n3cnc4cc(C)c(C)cc43)O[C@@H]2CO)[C@]2(C)N=C(C(C)=C3N=C(C=C4N=C1[C@@H](CCC(N)=O)C4(C)C)[C@@H](CCC(N)=O)[C@]3(C)CC(N)=O)[C@@H](CCC(N)=O)[C@]2(C)CC(N)=O.O.[Co+2]", "inactive"],
  ["COC1=C(OC)C(=O)C(C/C=C(\\C)CC/C=C(\\C)CC/C=C(\\C)CC/C=C(/C)CC/C=C(\\C)CC/C=C(\\C)CC/C=C(\\C)CC/C=C(\\C)CC/C=C(\\C)CCC=C(C)C)=C(C)C1=O", "inactive"],
  ["CCC(C(=O)O)c1ccc(N2Cc3ccccc3C2=O)cc1 (centres undefined)", "inactive"],
  ["CC1=C[C@@H]2[C@@H]([C@@H](O)C[C@@]3(C)[C@H]2C[C@@H](C)[C@]3(O)C(=O)CO)[C@@]2(C)Cc3cnn(-c4ccccc4)c3C=C12", "active"],
  ["Cc1cc2c(cc1CC(=O)c1sccc1S(=O)(=O)Nc1onc(C)c1Cl)OCO2", "inactive"],
  ["CCC1(C)CC(=O)NC1=O (centres undefined)", "inactive"]
]}
